Origin of the recorded values: ChEMBL document CHEMBL3044800

Target: ATP-dependent translocase ABCB1 (Homo sapiens, UniProt P08183)
Sequence (P08183 whole entry): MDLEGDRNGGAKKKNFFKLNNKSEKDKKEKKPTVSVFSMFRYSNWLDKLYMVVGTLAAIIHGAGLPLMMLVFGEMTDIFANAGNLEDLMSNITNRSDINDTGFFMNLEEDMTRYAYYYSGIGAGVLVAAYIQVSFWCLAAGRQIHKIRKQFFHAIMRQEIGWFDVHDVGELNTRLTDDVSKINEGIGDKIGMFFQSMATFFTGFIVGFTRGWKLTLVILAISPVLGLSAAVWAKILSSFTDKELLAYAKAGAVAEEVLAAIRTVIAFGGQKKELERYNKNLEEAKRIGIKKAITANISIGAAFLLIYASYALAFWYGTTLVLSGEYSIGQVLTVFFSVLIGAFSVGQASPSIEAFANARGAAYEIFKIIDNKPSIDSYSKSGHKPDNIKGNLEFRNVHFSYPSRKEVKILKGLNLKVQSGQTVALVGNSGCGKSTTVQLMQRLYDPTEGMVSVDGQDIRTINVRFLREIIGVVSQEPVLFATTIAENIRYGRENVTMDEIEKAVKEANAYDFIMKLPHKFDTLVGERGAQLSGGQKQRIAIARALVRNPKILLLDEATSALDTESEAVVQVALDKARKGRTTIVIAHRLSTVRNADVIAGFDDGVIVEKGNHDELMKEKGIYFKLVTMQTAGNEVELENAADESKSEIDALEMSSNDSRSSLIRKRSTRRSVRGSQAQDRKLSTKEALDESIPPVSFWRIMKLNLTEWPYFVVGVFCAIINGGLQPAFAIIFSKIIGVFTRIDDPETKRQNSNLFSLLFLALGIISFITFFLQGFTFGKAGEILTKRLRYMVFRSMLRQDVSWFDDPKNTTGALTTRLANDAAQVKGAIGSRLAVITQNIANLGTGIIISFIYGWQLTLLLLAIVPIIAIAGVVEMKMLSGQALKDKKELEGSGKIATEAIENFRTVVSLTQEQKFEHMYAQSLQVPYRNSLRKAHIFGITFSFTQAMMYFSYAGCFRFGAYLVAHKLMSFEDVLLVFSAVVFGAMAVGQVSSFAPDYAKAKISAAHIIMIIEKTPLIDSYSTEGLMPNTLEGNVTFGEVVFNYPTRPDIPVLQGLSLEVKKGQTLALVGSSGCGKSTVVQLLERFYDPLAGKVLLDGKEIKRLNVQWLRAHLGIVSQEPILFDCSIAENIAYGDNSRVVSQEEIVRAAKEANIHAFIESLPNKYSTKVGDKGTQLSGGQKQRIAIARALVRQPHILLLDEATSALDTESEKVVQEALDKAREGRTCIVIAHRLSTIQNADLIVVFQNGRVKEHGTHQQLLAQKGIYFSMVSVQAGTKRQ
Test: Inhibition of MDR1 (unknown origin)-mediated rhodamine 123 uptake expressed in mouse L5178Y cells assessed as fluorescence activity ratio at 4 uM by flow cytometry relative to untreated control
Type: cell-based
molecules and their reported RLU

Consider the reported RLU for these molecules:
MOLECULE: CC1=C(C(=O)c2ccccc2)C(c2ccccc2Cl)NC(=O)N1 (stereo not given)
PROPERTY MEASURED: RLU
VALUE REPORTED: 0.98
--
MOLECULE: CC1=C(C(=O)c2ccccc2)C(c2ccc(C#N)cc2)NC(=O)N1 (stereo not given)
PROPERTY MEASURED: RLU
VALUE REPORTED: 2.11
--
MOLECULE: CC1=C(C(=O)c2ccccc2)C(c2cccc(Oc3ccccc3)c2)NC(=O)N1 (stereo not given)
PROPERTY MEASURED: RLU
VALUE REPORTED: 1.23
--
MOLECULE: CC1=C(C(=O)c2ccccc2)C(c2cccc(Br)c2)NC(=O)N1 (stereo not given)
PROPERTY MEASURED: RLU
VALUE REPORTED: 1.15
--
MOLECULE: CC1=C(C(=O)c2ccccc2)C(c2ccccc2O)NC(=S)N1 (stereo not given)
PROPERTY MEASURED: RLU
VALUE REPORTED: 1.03

## Task Given CC1=C(C(=O)c2ccccc2)C(c2cccc(O)c2)NC(=O)N1 (stereo not given) , state its recorded RLU.
## Result 0.97

## Task Please look up its RLU: CC1=C(C(=O)c2ccccc2)C(c2cccc([N+](=O)[O-])c2)NC(=O)N1 (stereo not given)
## Result 1.39

## Task Need RLU, item CC1=C(C(=O)c2ccccc2)C(c2cccc(Cl)c2)NC(=S)N1 (stereo not given)
## Result 1.21

## Task Please report the recorded RLU for CC1=C(C(=O)c2ccccc2)C(c2cccc3ccccc23)NC(=O)N1 (stereo not given) .
## Result 29.87

## Task Query (molecule): CC1=C(C(=O)c2ccccc2)C(c2ccco2)NC(=O)N1 (stereo not given) ; field requested: RLU
## Result 1.26

## Task Item under review: CC1=C(C(=O)c2ccccc2)C(c2cccc(Oc3ccccc3)c2)NC(=S)N1 (stereo not given) . Reported RLU?
## Result 3.68

## Task For the molecule shown here, CC1=C(C(=O)c2ccccc2)C(c2ccccc2Cl)NC(=S)N1 (stereo not given) , give the reported RLU.
## Result 1.17

## Task GET /values?readout=RLU&item= CC1=C(C(=O)c2ccccc2)C(c2cccc(Br)c2)NC(=S)N1 (stereo not given)
## Result 1.11

## Task For the molecule CC1=C(C(=O)c2ccccc2)C(c2cccc(Cl)c2)NC(=O)N1 (stereo not given) , what RLU is on record?
## Result 0.89

## Task Param item = CC1=C(C(=O)c2ccccc2)C(/C=C/c2ccccc2)NC(=S)N1 (stereo not given) ; retrieve measured RLU.
## Result 1.28

## Task Please report the recorded RLU for CC1=C(C(=O)c2ccccc2)C(/C=C/c2ccccc2)NC(=O)N1 (stereo not given) .
## Result 0.99

## Task Could you tell me which RLU is on file for COc1cc(OC)cc(C2NC(=O)NC(C)=C2C(=O)c2ccccc2)c1 (stereo not given) ?
## Result 1.15

## Task Using the record for COc1ccc(C2NC(S)=NC(C)=C2C(=O)c2ccccc2)cc1OC (stereo not given) , report its RLU.
## Result 1.28
